system.under.test: Grb2 SH2 (UniProt P62993)
protocol: SH2 binding enrichment of the phosphorylated peptide, bacterial display (enrichment ratio); higher = better substrate or ligand; peptides without Tyr show the background
quantity: SH2 binding enrichment

macromolecule_sequence="IGMSSYVMLAS [GGCX_Y301_F299S]" system_under_test="Grb2 SH2 (UniProt P62993)" recorded_measurement=0.771
macromolecule_sequence="SGETKYNPTEA [NBEAL2_Y2748_E2747K]" system_under_test="Grb2 SH2 (UniProt P62993)" recorded_measurement=0.791
macromolecule_sequence="VRVQLYDPDYM [CYP4A22_Y100]" system_under_test="Grb2 SH2 (UniProt P62993)" recorded_measurement=1.08
macromolecule_sequence="KPNMNYDKLSQ [FLI1_Y332_R337Q]" system_under_test="Grb2 SH2 (UniProt P62993)" recorded_measurement=0.882
macromolecule_sequence="FNNPAYYVLEG [INPPL1_Y986]" system_under_test="Grb2 SH2 (UniProt P62993)" recorded_measurement=0.992
macromolecule_sequence="HLATEYVFSDF [PANX1_Y10_Q5H]" system_under_test="Grb2 SH2 (UniProt P62993)" recorded_measurement=0.755
macromolecule_sequence="ASLLPYFPAIM [IPO4_Y518]" system_under_test="Grb2 SH2 (UniProt P62993)" recorded_measurement=1.15
macromolecule_sequence="VHFARYLAMNK [HARS1_Y138_P134H]" system_under_test="Grb2 SH2 (UniProt P62993)" recorded_measurement=0.931

---

System: c-Abl (mouse);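 further: 11-residue human phosphosite peptides and single-mutation variants displayed on the E. coli surface, counted by deep sequencing, each peptide's frequency after selection divided by its frequency in the unselected input library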;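 further: frequency after pTyr selection over input frequency; kinase dosed for 20-30% of maximal phosphorylation in three min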
protocol: phosphorylation enrichment, bacterial display (enrichment ratio); higher = better substrate or ligand; peptides without Tyr show the background
// reported phosphorylation enrichment per item
Returns: the value as a bare number; no unit string appended.

Give its phosphorylation enrichment value. Item: VHFARYLAMNK [HARS1_Y138_P134H]
0.565

---

system.under.test: SHP2-C SH2
protocol: SH2 binding enrichment of the phosphorylated peptide, bacterial display (enrichment ratio); higher = better substrate or ligand; peptides without Tyr show the background
quantity: SH2 binding enrichment

macromolecule_sequence="RLVTRYIFNRE [HLA-DQB1_Y62_Y58L_YF]" system_under_test="SHP2-C SH2" quantity="SH2 binding enrichment" recorded_measurement=0.728
macromolecule_sequence="TNIKRYHIAKG [HARS1_Y150_V155G]" system_under_test="SHP2-C SH2" quantity="SH2 binding enrichment" recorded_measurement=0.972
macromolecule_sequence="NNHGNYIVHLG [ETFDH_Y172_R175H]" system_under_test="SHP2-C SH2" quantity="SH2 binding enrichment" recorded_measurement=0.856
macromolecule_sequence="FLAATYPTVGQ [NF1_Y2508_YF]" system_under_test="SHP2-C SH2" quantity="SH2 binding enrichment" recorded_measurement=0.888
macromolecule_sequence="WLFFRYLAIGC [ATP2A2_Y836]" system_under_test="SHP2-C SH2" quantity="SH2 binding enrichment" recorded_measurement=0.573
macromolecule_sequence="GTQGSYLLSRK [UGT3A1_Y123_C121G]" system_under_test="SHP2-C SH2" quantity="SH2 binding enrichment" recorded_measurement=0.821
macromolecule_sequence="FSCLPYRRLAF [SLC52A2_Y305_G306R_YF]" system_under_test="SHP2-C SH2" quantity="SH2 binding enrichment" recorded_measurement=0.852
macromolecule_sequence="GFKVRYATWSI [FGFR1_Y210_YF]" system_under_test="SHP2-C SH2" quantity="SH2 binding enrichment" recorded_measurement=1.63

[1] TTKVSYRASQP [MKI67_Y1737]
[2] YDKEYYSVHNK [MET_Y1235]
[3] MFNPFYGLFEF [NEDD4L_Y680_YF]
Given 3 sequences, produce a descending ranking by SH2 binding enrichment. Reply with the labels, ordered as the question asks.
3, 1, 2

[P] PTTKTYFPHFH [HBA1_Y43_D48H]
[Q] KPYRVYCDMNT [FGB_Y269]
Recorded SH2 binding enrichment values differ for P and Q ; which one is higher? Identify your pick by its label.
P

[1] LRYDSYWSYCN [SLC20A2_Y433_S434W]
[2] HESEIYCKVCF [CSRP3_Y57_YF]
Could you tell me which of these two has the smaller SH2 binding enrichment figure? First: 1 Second: 2 Identify your pick by its label.
1

[1] YSNVLYRPRGA [TMIGD2_Y197]
[2] SPPILYSFYLN [FCRL6_Y239_D244N]
Could you tell me which of these two has the smaller SH2 binding enrichment figure? First: 1 Second: 2 Identify your pick by its label.
1

[a] KSRQIYDAYIM [GRK3_Y109_R104K]
[b] SGPRRYNIAAL [TTR_Y125_T126N]
Recorded SH2 binding enrichment values differ for a and b ; which one is higher? Identify your pick by its label.
a
(a: 0.834, b: 0.551)

[a] YRIGPYQPNVP [MATR3_Y784]
[b] DFLSSYSAVNQ [OAT_Y85]
[c] VERRVYAEDPY [PCCA_Y401_C398R]
Given 3 sequences, produce a descending ranking by SH2 binding enrichment. Reply with the labels, ordered as the question asks.
b, a, c

[1] MDDKEYYSVHN [MET_Y1234_Y1230D]
[2] RTLIRYAKLGN [BEST1_Y131_N133K]
Recorded SH2 binding enrichment values differ for 1 and 2 ; which one is higher? Identify your pick by its label.
2
(2: 1.11, 1: 0.759)
